Would you mind telling me the reported viability, T/C of each entry?
# System: 935938-334-R-J1-PDC complex spheroid viability;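 note: spheroids exposed to drugs for seven days before viability read; 100% = DMSO vehicle control wells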
# protocolDescription: Anticancer human tumor 935938-334-R-J1-PDC patient-derived small intestine adenocarcinoma cell line growth inhibition [POLQ]
# assayContext: second compound 0.1 µM; first compound 0.000316 µM; active compounds read low

molecule	viability, T/C
CC[C@@]1(O)C(=O)OCc2c1cc1n(c2=O)Cc2cc3c(CN(C)C)c(O)ccc3nc2-1 + Nc1ccc(C#CCN(C(=O)Cc2ncc(C(F)(F)F)cc2C(F)(F)F)c2ccc(F)cc2)nn1	98.6%
CC[C@@]1(O)C(=O)OCc2c1cc1n(c2=O)Cc2cc3c(CN(C)C)c(O)ccc3nc2-1 + COC1C(OC(N)=O)C(O)C(Oc2ccc3c(O)c(NC(=O)c4ccc(O)c(CC=C(C)C)c4)c(=O)oc3c2C)OC1(C)C	94.2%

Now for the molecule whose viability, T/C we want.
Prompt: Endpoint output: viability, T/C of CC[C@@]1(O)C(=O)OCc2c1cc1n(c2=O)Cc2cc3c(CN(C)C)c(O)ccc3nc2-1 + Cc1cccc(N(C)C(=O)C2C(O)CCN2c2nc(C)cc(C(F)(F)F)c2C#N)c1 . Value?
Completion: 105%
